- System: NCI-H226 cells
- Protocol summary: Cell growth assay (CellTiter-Glo)
- Format: cell-based, human
- Stated conditions: Homo sapiens, NCI-H226, 168 h, 7 days treatment, CellTiter-Glo luminescence, read-out: H226 CTG IC50
Quantity measured: IC50

Cn1cc2cc(Oc3ccc(C(F)(F)F)cc3)cc([C@@H]3C[C@H]3C(=O)N3CC(C)(O)C3)c2n1 (single isomer, unassigned); < 100 nM
Cn1cc2cc(Oc3ccc(C(F)(F)F)cc3)cc([C@@H]3C[C@H]3C(=O)N3CCC34CC(=O)C4)c2n1 (single isomer, unassigned); 100 to 500 nM
Cn1cc2cc(Oc3ccc(F)c(F)c3)cc([C@H]3C[C@@H]3C(=O)N3CC(O)C3)c2n1 (single isomer, unassigned) [Example 90b]; < 100 nM
O=C(O)[C@@H]1CC1c1cc(-c2ccc(C(F)(F)F)cc2)cc2scnc12 (mixture of isomers); 1000 to 30000 nM
CN1Cc2cc(-c3ccc(C(F)(F)F)cc3)cc(C3C[C@H]3C(=O)O)c2C1=O (mixture of isomers); 100 to 500 nM

Please turn your attention to the following entry.
Q: Let me know recorded IC50 for C[C@H](CO)NC(=O)[C@@H]1CC1c1cc(Oc2ccc(C(F)(F)F)cc2)cc2cn(C)nc12 (single isomer, unassigned) , thanks.
Ans: < 100 nM

###

Reported pIC50 values for the following compounds.
- System: NCI-H226 cells
- Protocol summary: Cell growth assay (CellTiter-Glo)
- Assay type: cell-based, human
- Stated conditions: Homo sapiens, NCI-H226, 168 h, 7 days treatment, CellTiter-Glo luminescence, read-out: H226 CTG IC50
pIC50: −log10 of the molar value.

Known pIC50 results, listed for orientation:
CNC(=O)[C@@H]1CC1c1cc(Oc2ccc(C(F)(F)F)cc2)cc2cccnc12 (mixture of isomers); 6.30 to 7.00
Cn1ncc2c(C3C[C@H]3C(=O)O)cc(-c3ccc(OC(F)(F)F)cc3)cc21 (mixture of isomers); 6.30 to 7.00
CNC(=O)[C@@H]1CC1c1cc(-c2ccc(C(F)(F)F)cc2)cc2c1cnn2C (stereo partly shown) [Example 40]; 6.30 to 7.00

Q: Find the measured pIC50 of `CNS(=O)(=O)CCCc1cc(-c2ccc(C(F)(F)F)cc2)cc2cn(C)nc12` and report it.
Ans: 4.52 to 6.00

Q: Output pIC50 of C[C@@H](CO)NC(=O)[C@@H]1CC1c1cc(Oc2ccc(C(F)(F)F)cc2)cc2cn(C)nc12 (single isomer, unassigned)
Ans: > 7.00

Q: Return pIC50 for the following compound: CNC(=O)[C@@H]1C[C@H]1c1cc(Oc2ccc(C(F)(F)F)cc2)cc2c1NCCC2 (racemic)
Ans: 6.30 to 7.00

Q: Please look at this compound and report its pIC50: Cc1cn2cc(Oc3ccc(C(F)(F)F)cc3)cc(C3C[C@H]3C(=O)N3CC(O)C3)c2n1 (single isomer, unassigned) [Example 85a]
Ans: 4.52 to 6.00

###

- Measured target: UniProt P28347
- Sequence (P28347 whole entry, species assumed): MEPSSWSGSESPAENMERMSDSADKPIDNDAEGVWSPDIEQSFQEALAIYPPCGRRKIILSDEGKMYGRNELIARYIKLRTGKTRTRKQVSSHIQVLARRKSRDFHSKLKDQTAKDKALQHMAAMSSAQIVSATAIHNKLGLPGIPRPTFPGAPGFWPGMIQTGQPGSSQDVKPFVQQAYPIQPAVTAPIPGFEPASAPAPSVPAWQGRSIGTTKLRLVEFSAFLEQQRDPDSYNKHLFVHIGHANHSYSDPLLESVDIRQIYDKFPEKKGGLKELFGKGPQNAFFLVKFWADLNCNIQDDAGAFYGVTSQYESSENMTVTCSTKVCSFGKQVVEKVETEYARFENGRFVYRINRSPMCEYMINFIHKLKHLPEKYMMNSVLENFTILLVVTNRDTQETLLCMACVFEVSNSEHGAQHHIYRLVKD
- Protocol summary: Thermal shift assay TEAD1
- Type: binding
Quantity measured: TEAD1 ΔTm (°C)

Cn1cc2cc(Oc3ccc(C(F)(F)F)cc3)cc([C@@H]3C[C@H]3C(=O)N3CCC34CC(=O)C4)c2n1 (single isomer, unassigned); 25.0
CC(C)NC(=O)[C@@H]1C[C@H]1c1cc(-c2ccc(C(F)(F)F)cc2)cc2c1cnn2C (racemic); 0.6
Cn1cc2cc(Oc3ccc(C(F)(F)F)cc3)cc(C3C[C@H]3C(=O)N3CCOC4(COC4)C3)c2n1 (single isomer, unassigned); 4.6
Cn1cc2cc(Oc3ccc(C(F)F)cc3)cc([C@H]3C[C@@H]3C(=O)N3CC(O)C3)c2n1 (single isomer, unassigned) [Example 89b]; 8.6
Cn1cc2cc(Oc3ccc(C(F)(F)F)cc3)cc([C@@H]3C[C@H]3C(=O)N3CC4CC3CC4O)c2n1 (single isomer, unassigned) [Example 103a]; 6.4

(A) Cn1cc2cc(Oc3ccc(C(F)(F)F)cc3)cc(C3C[C@H]3C(=O)N3C[C@H]4C[C@@H]3C[C@H]4O)c2n1 (single isomer, unassigned) [Example 103e]
(B) CNC(=O)[C@@H]1CC1c1cc(-c2ccc(OC(F)(F)F)cc2)cc2cn(C)nc12 (mixture of isomers)
Q: I'm curious, which of these has a smaller TEAD1 ΔTm number: A or B ? Please respond with the label that marks your chosen entry.
Ans: B

###

- Measured target: UniProt Q15562
- Sequence (Q15562 whole entry, species assumed): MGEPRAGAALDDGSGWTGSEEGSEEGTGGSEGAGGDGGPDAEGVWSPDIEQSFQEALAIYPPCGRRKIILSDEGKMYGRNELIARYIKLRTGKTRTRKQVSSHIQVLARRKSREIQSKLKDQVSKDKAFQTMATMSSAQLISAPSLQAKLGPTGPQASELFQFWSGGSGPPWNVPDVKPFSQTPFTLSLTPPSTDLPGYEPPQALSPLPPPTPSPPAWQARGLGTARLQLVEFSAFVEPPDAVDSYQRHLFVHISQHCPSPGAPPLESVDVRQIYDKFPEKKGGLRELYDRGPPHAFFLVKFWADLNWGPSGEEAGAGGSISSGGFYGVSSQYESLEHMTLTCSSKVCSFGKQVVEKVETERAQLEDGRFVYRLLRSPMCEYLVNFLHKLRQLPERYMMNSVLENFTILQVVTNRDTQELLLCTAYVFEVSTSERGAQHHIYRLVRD
- Protocol summary: Thermal shift assay TEAD2
- Type: binding
Quantity measured: TEAD2 ΔTm (°C)

Solved cases below.
O=C(O)[C@@H]1CC1c1cc(-c2ccc(C(F)(F)F)cc2)cc2c1cnn2C(F)F (mixture of isomers); 4.1
CCNC(=O)[C@@H]1CC1c1cc(-c2ccc(C(F)(F)F)cc2)cc2c1=NC(C)N=2 (mixture of isomers); 3.5
Cn1ncc2c(C3C[C@H]3C(=O)O)cc(-c3ccc(OC(F)(F)F)cc3)cc21 (mixture of isomers); 7.7
Cn1cc2cc(Oc3ccc(C(F)(F)F)cc3)cc([C@@H]3C[C@H]3C(=O)NC#N)c2n1 (single isomer, unassigned); 13.4
Cn1cc2cc(Oc3ccc(C(F)(F)F)cc3)cc(C3C[C@H]3C(=O)N3[C@@H]4CC[C@H]3C[C@H](O)C4)c2n1 (single isomer, unassigned); 8.2

(P) Cn1cc2cc(Oc3ccc(C(F)(F)F)cc3)cc([C@@H]3C[C@H]3C(=O)N3CC4CC3CN4)c2n1 (single isomer, unassigned)
(Q) CNC(=O)[C@@H]1CC1c1cc(-c2ccc(C(F)(F)F)cc2)cc2c1cnn2C (some centres unmarked) [Example 40]
(R) Cn1ncc2c(C3C[C@H]3C(=O)O)cc(Oc3ccc(C(F)(F)F)cc3)cc21 (mixture of isomers)
Q: Order the items by recorded TEAD2 ΔTm; the first position goes to the largest value. Note for the reader: the ranking is given by listing the labels in the order requested.
Ans: R, P, Q

(1) Cn1cc2nc(Oc3ccc(C(F)(F)F)cc3)nc([C@H]3C[C@@H]3C(=O)N3CC(O)C3)c2n1 (single isomer, unassigned) [Example 109b]
(2) CNC(=O)[C@@H]1CC1c1cc(Oc2ccc(C(F)(F)F)cc2)cc2cn(C)nc12 (mixture of isomers)
(3) Cn1ncc2c(C3C[C@H]3C(=O)O)cc(-c3ccc(C(F)(F)F)cc3)cc21 (mixture of isomers)
Q: Output the entries ranked by TEAD2 ΔTm from maximum down to minimum. Form field (ranking): labels in requested order.
Ans: 2, 3, 1

(a) Cn1cc2cc(Oc3ccc(C(F)(F)F)cc3)cc(C3C[C@H]3C(=O)N3CC4(CC(O)C4)C3)c2n1 (single isomer, unassigned)
(b) CNC(=O)[C@H]1C[C@@H]1c1cc(Oc2ccc(C(F)(F)F)cc2)cc2cn(C)nc12 (single isomer, unassigned) [Example 34b]
Q: Please indicate which item has the smaller measured TEAD2 ΔTm: a versus b When you have decided, please share the label of that item.
Ans: a

###

- Measured target: TEAD4 (Homo sapiens, UniProt Q15561)
- Sequence (Q15561 whole entry, species assumed): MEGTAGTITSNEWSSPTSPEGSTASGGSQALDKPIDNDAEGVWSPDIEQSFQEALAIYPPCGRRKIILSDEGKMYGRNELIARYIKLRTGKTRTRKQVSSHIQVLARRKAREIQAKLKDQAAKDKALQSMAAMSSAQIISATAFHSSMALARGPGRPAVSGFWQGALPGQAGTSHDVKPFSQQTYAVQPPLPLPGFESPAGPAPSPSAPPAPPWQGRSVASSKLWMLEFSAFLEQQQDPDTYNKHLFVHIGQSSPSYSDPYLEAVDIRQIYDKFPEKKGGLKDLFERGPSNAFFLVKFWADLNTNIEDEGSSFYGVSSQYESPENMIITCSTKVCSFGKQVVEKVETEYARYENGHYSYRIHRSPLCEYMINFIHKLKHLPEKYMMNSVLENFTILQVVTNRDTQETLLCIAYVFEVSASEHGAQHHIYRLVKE
- Protocol summary: Thermal shift assay TEAD4
- Type: binding
- Method: Example B: Thermal Shift Assay 1) Prepare a fresh dilution of Protein Thermal Shift™ Dye (Applied Biosystems, 1000×) to 8× by […]. 2) To ensure the same DMSO concentration, the compounds were diluted as follows: Prepare 10 mM stock solution of compounds; The final DMSO concentration was 0.1% 10 μM: Diluting stock solution to 100 μM by using PBS. 1 μM: Diluting stock solution to 1 mM by using DMSO, then dilute to 10 μM by using PBS. […]
Quantity measured: TEAD4 ΔTm (°C)

These recorded examples may help you get a feel for the data.
CNS(=O)(=O)CCc1cc(Oc2ccc(C(F)(F)F)cc2)cc2cccnc12; 9.7
Cn1cc2nc(Oc3ccc(C(F)(F)F)cc3)cc([C@@H]3C[C@H]3C(=O)N3C4COCC3C4)c2n1 (single isomer, unassigned); 6.1
O=C(O)[C@@H]1CC1c1cn(-c2ccc(C(F)(F)F)cc2)c2cccnc12 (mixture of isomers); 5.9

(a) O=C(O)[C@@H]1CC1c1cc(-c2ccc(C(F)(F)F)cc2)cc2cn(-c3cccnc3)nc12 (mixture of isomers)
(b) Cn1cc2cc(Oc3ccc(F)c(F)c3)cc([C@@H]3C[C@H]3C(=O)N3CC(O)C3)c2n1 (single isomer, unassigned) [Example 90a]
Q: Compare a and b and name the one whose reported TEAD4 ΔTm is smaller. Please respond with the label that marks your chosen entry.
Ans: b
(b: 0.6 °C, a: 4.2 °C)

###

- Measured target: TEAD4 (Homo sapiens, UniProt Q15561)
- Protocol summary: Thermal shift assay TEAD4
- Assay type: binding
- Method: Example B: Thermal Shift Assay 1) Prepare a fresh dilution of Protein Thermal Shift™ Dye (Applied Biosystems, 1000×) to 8× by […]. 2) To ensure the same DMSO concentration, the compounds were diluted as follows: Prepare 10 mM stock solution of compounds; The final DMSO concentration was 0.1% 10 μM: Diluting stock solution to 100 μM by using PBS. 1 μM: Diluting stock solution to 1 mM by using DMSO, then dilute to 10 μM by using PBS. […]
Quantity measured: TEAD4 ΔTm (°C)

Examples from the recorded data:
Cn1cc2cc(Oc3ccc(C(F)(F)F)c(F)c3)cc([C@@H]3C[C@H]3C(=O)N3C[C@@H]4C[C@H]3C[C@@H]4O)c2n1 (single isomer, unassigned); 10.6
Cn1cc2nc(Oc3ccc(C(F)(F)F)cc3)cc([C@H]3C[C@@H]3C(=O)N3CC(O)C3)c2n1 (single isomer, unassigned) [Example 108b]; 8.3
Cn1ncc2c(C3C[C@H]3C(N)=O)cc(-c3ccc(C(F)(F)F)cc3)cc21 (mixture of isomers); 6.6

(a) Cn1cc2cc(Oc3ccc(C(F)F)cc3)cc([C@@H]3C[C@H]3C(=O)N3CC(O)C3)c2n1 (single isomer, unassigned) [Example 89a]
(b) Cn1cc2cc(O[C@H]3CC[C@@H](C(F)(F)F)CC3)cc([C@@H]3C[C@H]3C(=O)N3CC(O)C3)c2n1 (single isomer, unassigned) [Example 87a]
(c) O=C(O)[C@@H]1CC1c1cc(-c2ccc(C(F)(F)F)cc2)cc2scnc12 (mixture of isomers)
Q: Sort the compounds on TEAD4 ΔTm; start with the lowest figure. Give the labels in the order requested.
Ans: a, c, b
